Tested on: Plasmodium berghei
Assay procedure: Screen against P. berghei liver stage (PbLuc), transformed with Luciferase, at 10uM
Type: functional, HepG2
Measurement context: tested at 10 uM
Screen size: about 69,000 compounds; about 8,600 (12%) showed an effect of 50% or more. The sample holds strong results, similar compounds and a random draw of the others, so the mix is not that of the screen.
Parameter threshold = 20%. Response is label 1 when INHIBITION meets or exceeds it, else label 0.

# Compound, Target system, Label class
data = [
    ("O=C(c1cccs1)N1CCC2(CC1)CN(c1cncnc1)C(=O)CO2", "Plasmodium berghei", "label 1"),
    ("NC(=O)N1CCC2(CC1)CN(c1ccsc1)C(=O)CO2", "Plasmodium berghei", "label 1"),
    ("Cc1ccc(C(=O)N2CCN(CCCSCC#N)CC2)o1", "Plasmodium berghei", "label 0"),
    ("CC1CCN(CCNC(=O)C2CCN(C(=O)C3CC3)CC2)CC1", "Plasmodium berghei", "label 0"),
    ("O=C(C1CC1)N1CC[C@H]2C(=O)N(c3ccsc3)CCO[C@H]2C1", "Plasmodium berghei", "label 1"),
    ("CCO[C@H]1CN(C)C[C@@H]1NC(=O)c1cc(C)nc2c(C)cccc12", "Plasmodium berghei", "label 1"),
    ("Cc1csc(N2CCN(Cc3nnsc3Cl)CC2C)n1 (centres undefined)", "Plasmodium berghei", "label 1"),
    ("O=C1Nc2ccccc2CN(CC=Cc2ccccc2)C12CCNC2 (centres undefined)", "Plasmodium berghei", "label 1"),
    ("Cc1cnc(N2CCC3(CC2)CN(c2ccsc2)C(=O)CO3)nc1", "Plasmodium berghei", "label 1"),
    ("NC(=O)c1cc(CC2CCCN(Cc3cnccn3)CC2)ncn1 (centres undefined)", "Plasmodium berghei", "label 0"),
]

In: Hi, just wondering whether O=C(C1CCOCC1)N1CCC2(CC1)CN(c1ccsc1)C(=O)CO2 shows INHIBITION of 20% or higher.
Out: label 1
